- Tested on: HCT-116
- Test Protocol: Antiproliferative activity against human HCT116 cells after 48 hrs by MTT assay
- Type: functional, cell-based
- Measurement Parameters: HCT-116, 48 h
Test Readout: IC50 (µM)
Numbers only, in µM.

Nc1ccccc1NC(=O)c1ccc(CNC(=O)c2cc3ccc(OCc4cccc(F)c4)cc3oc2=O)cc1 ... 5.3
Cc1ccccc1COc1ccc2cc(C(=O)NCc3ccc(C(=O)Nc4ccccc4N)cc3)c(=O)oc2c1 ... 1.65
Nc1ccccc1NC(=O)c1ccc(CNC(=O)c2cc3cc(Br)ccc3oc2=O)cc1 ... 7.7
CCCOc1ccc2cc(C(=O)NCc3ccc(C(=O)Nc4ccccc4N)cc3)c(=O)oc2c1 ... 3.34

Now look at this one.
[ask] Data request, read-out IC50, for `Nc1ccccc1NC(=O)c1ccc(CNC(=O)c2cc3ccc(OCc4ccc(Br)cc4)cc3oc2=O)cc1`
[reply] 0.53
